- Tested on: LOX IMVI melanoma
- assay.method.text: NCI tumour cell line growth inhibition, 48 h

molecule | TGI
CC(=O)Oc1c(C)c2c(O)c3c1C1=C(OCOC1=C(C)C3=O)/C(C)=C\C(C)(O)C(O)C(C)C(O)C1C(=O)OC(C(C)C1O)C(C)(O)/C=C/C=C(C)C(=O)N2 (stereo unspecified) | > 100 µM
CC(C)Nc1ccc(Nc2ccccc2)cc1 | 29.1 µM
CS(=O)(=O)OC1CN2CCC1CC2 (stereo unspecified) | > 100 µM
O=C(C=P(c1ccccc1)(c1ccccc1)c1ccccc1)c1cccc(-c2cccc([N+](=O)[O-])c2)c1 | 9.63 µM
Cc1ncc([N+](=O)[O-])n1CCN(C)C(=O)CCCn1ccnc1[N+](=O)[O-] | > 100 µM
Nc1ccc2nc(NCc3ccc(F)cc3)cnc2c1 | > 100 µM
N#Cc1c(NC(=S)Nc2ccc(Cl)cc2)sc2c1CCCC2 | > 100 µM
Cn1cc(C2=C(c3cn(CCO)c4ccccc34)C(=O)NC2=O)c2ccccc21 | > 25 µM
Cc1n[nH]c(=O)n1C1CCCC1 | > 100 µM
O=C1CCCC2C(O)CCC[C@H]12 (stereo partly specified) | > 100 µM
COc1ccc2c(c1)C(=O)N1CCOC1C2C(=O)O (stereo unspecified) | > 100 µM
O=C(c1ccco1)N(Cc1ccco1)C(=S)Nc1ccccc1 | 27.1 µM
COc1ccc(/C(Cl)=C(/c2ccc(O)cc2)c2ccc(OCCN(C)C)cc2)cc1 | 12.6 µM
Clc1ccc(/C=C/c2cc(N3CCOCC3)c3cc(Cl)c(Cl)cc3n2)cc1 | > 100 µM
CN(c1cc2ncc(=O)[nH]c2cc1NC(N)=NCc1ccc(Cl)cc1)C1CCCCC1 | 5.88 µM
O=[N+]([O-])c1ccc(-c2nc3ccc([N+](=O)[O-])cc3[nH]2)cc1 | 67.8 µM
c1ccc2c(c1)sc1c3cnccc3ccc21 | > 100 µM
COC(=O)CC1C(COC(C)=O)OC(n2cc(C)c(=O)[nH]c2=O)C1OC(C)=O (stereo unspecified) | > 100 µM
CC(C)CC[C@H](O)[C@@H](C)[C@H]1[C@@H](OC2OC(C)C(O)C(O)C2O)C[C@H]2[C@@H]3CC=C4C[C@@H](O)CC[C@]4(C)[C@H]3[C@@H](O)C[C@]12C (stereo partly specified) | > 100 µM
COC(=O)[C@H](Cc1ccccc1)NC(=O)N1CCCN(C(=O)N[C@@H](Cc2ccccc2)C(=O)OC)CCCN(C(=O)N[C@@H](Cc2ccccc2)C(=O)OC)CCC1 | 29.8 µM
CCN(CC)c1ccc(/C=C2/C[N+](C)(C)C/C(=C/c3ccc(N(CC)CC)cc3)C2=O)cc1 | 6.16 µM
COc1ccc(C2CC(c3cccc(Nc4ccncc4)c3)=NN2c2ccc(Cl)cc2)cc1 (stereo unspecified) | 3.03 µM
CN(CCCCCl)P(=O)(OCc1ccc([N+](=O)[O-])o1)OCC1OC(n2ccc(N)nc2=O)C(F)(F)C1O (stereo unspecified) | > 40.6 µM
O=S1(=O)C(c2ccccc2)C(N2CCCCC2)C1C1CC2c3ccccc3C1c1ccccc12 (stereo unspecified) | > 100 µM
COc1cc2cc(C(=O)CCC(=O)O)sc2cc1OC | > 100 µM
CCCCCCCCCCCCCCCc1ccc(OCC(O)CO)cc1 (stereo unspecified) | 32.1 µM
N#Cc1n[nH]n(C2CCCCC2)c1=O | > 100 µM
C=CCOC(=O)Cn1cc(C)c(=O)[nH]c1=O | > 100 µM
COc1ccc(-n2cc(-c3cc(OC)c(OC)c(OC)c3)nc2SCc2ccccc2)cc1 | > 100 µM
N#CC(c1nc2ccccc2s1)c1ncnc(Cl)c1[N+](=O)[O-] (stereo unspecified) | 33.1 µM
O=S(=O)(O)CCCC1S(=O)(=O)OCCOS1(=O)=O | > 100 µM
CC(=O)c1c(SCCN2CCCC2)n(-c2ccccc2)c(=S)n(-c2ccccc2)c1=O | 9.04 µM
O=[N+]([O-])c1ccccc1N=Nc1c(O)[nH]c2ccc(Br)cc12 | > 61 µM
N/C(=N\S(=O)(=O)c1cccc2nsnc12)Nc1ccc(Cl)cc1 | 85.8 µM
CC(=O)Nc1ccc(/C=C/C(=O)c2ccccc2)cc1 | 18.9 µM
COc1ccc2c(c1O)C13CCN(C)C(C2)C1CCC1(C3)OCCO1 (stereo unspecified) | > 100 µM
C=[N+](CNC(=O)CNC(=O)C(Cc1ccc([N+](=O)[O-])cc1)NC(=O)OC(C)(C)C)C(=O)CNC(=O)C(Cc1ccc([N+](=O)[O-])cc1)NC(=O)OC(C)(C)C (stereo unspecified) | 33.4 µM
O=C1Cc2c([nH]c3c(Cl)cccc23)-c2ccccc2N1 | > 100 µM
CC1=C(/C=C/C(=O)O)C(C)(C)CCC1 | > 100 µM
O=S(=O)(Cc1ccc(Cl)cc1Cl)c1ccc(Cl)cc1 | > 100 µM
CCCCCCCc1cc(OC(=O)c2c(C)cc(OC)cc2O)cc(O)c1C(=O)O | 48.7 µM

* * *

- Tested on: HOP-92 NSCLC
- assay.method.text: NCI tumour cell line growth inhibition, 48 h
// reported log10(TGI) per item
recorded.endpoint: log10(TGI) (log10 of the value in µM)

structure | obs.value
[Cl][Sn]([Cl])([c]1ccccc1)[c]1ccccc1 | 0.80
CN(C)Cc1cc(N=Nc2cccc(Cl)c2)ccc1O | 1.61
Cc1ccc(Cc2n[nH]c(=O)n2/N=C\CC/C=N\n2c(Cc3ccc(C)cc3)n[nH]c2=O)cc1 | 1.88
Nc1ncnc2c1ncn2Cc1ccc(C23CC4CC(CC(C4)C2)C3)c(OCc2cc(F)c(F)cc2F)c1 | 1.51
O=C(N/N=C(/COc1ccc(Cl)cc1)N=Cc1cccnc1)c1ccncc1 | 1.93
COc1cc(-n2cc(-c3ccc(F)cc3)nc2SCc2ccccc2)cc(OC)c1OC | 1.57

* * *

- Test system: ACHN renal
- assay.method.text: NCI tumour cell line growth inhibition, 48 h

compound | TGI
C/C=C/C1=C(Cl)C(=O)[C@@H](Cl)[C@@]1(O)C(=O)OC | 6.59 µM
CC(=O)O[C@]12CCCCC1C1(O)C(O)CCCCC12 (stereo partly specified) | > 100 µM
CCCCCCCc1cc(OC(=O)c2c(C)cc(OC)cc2O)cc(O)c1C(=O)O | 62.8 µM
Cn1c(-c2cccs2)cc(-c2ccccc2)c1-c1cccs1 | > 100 µM
O=S1(=O)C(c2ccccc2)C(N2CCCCC2)C1C1CC2c3ccccc3C1c1ccccc12 (stereo unspecified) | > 100 µM
S=c1nc(Cc2ccc(Cl)cc2)[nH][nH]1 | > 100 µM
COc1ccc2c(c1)C(=O)N1CCOC1C2C(=O)O (stereo unspecified) | > 100 µM
CCOc1ccc(-c2cnnn2-c2nonc2-n2cccc2)cc1 | > 100 µM
Cc1ccc(Cc2n[nH]c(=O)n2/N=C\CC/C=N\n2c(Cc3ccc(C)cc3)n[nH]c2=O)cc1 | > 100 µM
CN(C)CCC(O)(c1ccccc1)C(O)(CCN(C)C)c1ccccc1 (stereo unspecified) | > 100 µM
COc1ccc2c(c1)=C(C=C1C=CN(O)C=C1)C(=O)N=2 | > 100 µM

* * *

- Test system: DMS 273 small cell lung
- assay.method.text: NCI tumour cell line growth inhibition, 48 h
// reported TGI per item

molecule | TGI
CC(=O)O[C@@]12CO[C@@H]1C[C@H](O)[C@@]1(C)C(=O)[C@H](O)C3=C(C)[C@@H](OC(=O)[C@H](O)[C@@H](NC(=O)OC(C)(C)C)c4ccccc4)C[C@@](O)([C@@H](OC(=O)c4ccccc4)[C@H]21)C3(C)C | 17.4 µM
N#CC(C(=O)/C(=N/NC(=O)c1ccccc1O)C(C#N)c1ccccc1)c1ccccc1 (configuration not stated) | > 100 µM
Cc1noc2cccc(OCc3ccccc3)c12 | > 100 µM
O=C1[C@@H]2C(c3ccc(Cl)cc3Cl)=NO[C@@H]2C(=O)N1c1ccc(Cc2ccc(N3C(=O)[C@H]4C(c5ccc(Cl)cc5Cl)=NO[C@H]4C3=O)cc2)cc1 | > 100 µM
O=S(=O)(N/N=C/c1ccc(Cl)c(Cl)c1)c1ccccc1 | > 100 µM
CCC[CH2][Sn]([CH2]CCC)([O]C(=O)c1cc(F)ccc1F)[O][Sn]([CH2]CCC)([CH2]CCC)[O]C(=O)c1cc(F)ccc1F | 1.56 µM
Cc1ccc(NP(=O)(Oc2ccccc2)N(CCCl)CCCl)cc1 (configuration not stated) | > 100 µM
Nc1ccc2nc(NCc3ccc(F)cc3)cnc2c1 | > 100 µM
COc1ccc2c(c1)C(=O)N1CCOC1C2C(=O)O (configuration not stated) | 11.2 µM
COC(c1cccc(C(O)(C(F)(F)F)C(F)(F)F)c1)(C(F)(F)F)C(F)(F)F | 34.8 µM
C/C(=N\NC(N)=S)c1cc(C)c(C)cc1C | > 100 µM
COC(=O)C1CCC(Nc2ccc(C)cc2C)=N1 (configuration not stated) | > 100 µM
CC1(Cl)CC2OC3(Br)C=CC(C)(O)C2(CC1Br)C3(C)C (configuration not stated) | > 100 µM
NC(=O)C#CC#CC#CCO | 4.1 µM
CC[O-].CC[O-].O=C([CH-]C(=O)c1cccnc1)c1ccccc1.O=C([CH-]C(=O)c1cccnc1)c1ccccc1.[Ti+4] | > 100 µM
O=C(CCC(=O)Nc1cccc(Cl)c1)CC(=O)c1ccc(F)cc1 | > 100 µM
CCCCCCCCCCCCCCCc1ccc(OCC(O)CO)cc1 (configuration not stated) | 33.3 µM
